Test system: Neuregulin-1 EGF-like domain
EXPERIMENT: small molecules binding NRG1 EGF domain – biochemical, small-molecule microarray, 635 nm fluorescence, primary screen (AID 1081);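 note: binding of the protein to compounds printed on small-molecule microarray slides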
RUN PARAMETERS: higher = more signal
So I've got a bunch of compounds here, and I need their composite z-score values.
Numbers only.

Worked set:
COMPOUND: C=CC[C@]1(C(N)=O)COC(c2ccc(OCCCO)cc2)=N1
ENDPOINT VALUE: 1.09
//
COMPOUND: COc1ccc([Si](C)(C)[C@H]2[C@H](CCO)O[C@@]3(C(=O)N(Cc4ccccc4)c4ccc(N5CCCCC5=O)cc43)[C@@H]2C)cc1
ENDPOINT VALUE: 0.909
//
COMPOUND: Cc1ccc(S[C@]2(C(=O)O)CC(=O)N(Cc3ccccc3C(F)(F)F)[C@@H]2c2ccc(CO)cc2I)cc1
ENDPOINT VALUE: 0.559

Your task in this section: give composite z-score for each listed record.
1. C=CC[C@]1(C(=O)N2CCOCC2)N=C(c2ccc(OCCCO)cc2)O[C@H]1c1ccccc1N=[N+]=[N-]
2. CCCCN1CC=CC23O[C@@H]4/C=C\CCCOC(=O)C4[C@H]2C(=O)N(CCCCCO)[C@@H]3C1=O (stereo partly specified)
3. O=C1O[C@@H](c2ccccc2)[C@@H](c2ccccc2)N2[C@@H](c3ccc(OCCO)cc3)[C@]3(C(=O)Nc4ccc(C#CCCO)cc43)[C@@H](C(=O)NC[C@H](O)c3ccccc3)[C@H]12
4. O=C(CS)NCCCCCNC(=O)[C@@H]1C[C@@H]2C(=O)NCC(=O)N2[C@@H]1c1cccc(OCCO)c1
5. O=C1[C@H]2C=C(Br)[C@H](C[C@@H]2OCCCCCCO)[C@@]12CO2

Completion:
1: 1.25; 2: 1.26; 3: 1.17; 4: 1.1; 5: -0.394

Batch: composite z-score for all items listed.
1. COCCCNC(=O)[C@@]1(Cc2ccccc2CN=[N+]=[N-])N=C(c2ccc(OCCCO)cc2)O[C@H]1c1ccccc1CN=[N+]=[N-]
2. [N-]=[N+]=NCc1ccccc1[C@@H]1OC(c2ccc(OCCCO)cc2)=N[C@]1(CCS(=O)(=O)c1ccccc1)C(N)=O
3. CCCCCN1CC=CC23O[C@@H]4C=CCOC(=O)[C@@H]4[C@H]2C(=O)N(C(C)CO)[C@@H]3C1=O (stereo partly specified)

Completion:
[1.11, 1.34, 1.49]

###

EXPERIMENT: binders from COS7 lysate, DM2A8 probe, primary screen, torsin A project, cell lysate, small-molecule microarray, fluorescence 635/667 (AID 1065)
RUN PARAMETERS: higher = more signal, COS7 lysate expressing mutant human TOR1A
Kindly state composite z-score for each of the entries shown.
Answers are plain numbers.

COMPOUND: C=CC[C@@]1(C(=O)N2CCCCC2)N=C(c2ccc(OCCCO)cc2)O[C@@H]1c1ccccc1CN=[N+]=[N-]
RECORDED METRIC: composite z-score
ENDPOINT VALUE: 0.432
//
COMPOUND: C[N+](C)(C)CCCC[C@@H]1NC(=O)[C@H]2C[C@@H](C(=O)NCCCCCCNC(=O)CS)[C@@H](c3ccc(O)cc3)N2C1=O
RECORDED METRIC: composite z-score
ENDPOINT VALUE: 2
//
COMPOUND: COC(=O)[C@]1(CCC(=O)OC(C)(C)C)N=C(c2ccc(OCCCO)cc2)O[C@@H]1c1ccccc1
RECORDED METRIC: composite z-score
ENDPOINT VALUE: -0.522
//
COMPOUND: CCCCN1CC=CC23O[C@@H]4/C=C\CCCOC(=O)C4[C@H]2C(=O)N(CCCO)[C@@H]3C1=O (some centres undefined)
RECORDED METRIC: composite z-score
ENDPOINT VALUE: -0.7
//
COMPOUND: COc1ccc(CCNC(=O)[C@@]2(c3ccc([N+](=O)[O-])cc3)CC(=O)N(CC34CC5CC(CC(C5)C3)C4)[C@@H]2c2ccc(CO)cc2I)cc1
RECORDED METRIC: composite z-score
ENDPOINT VALUE: 1
//
COMPOUND: C#CCN1[C@H](/C=C/C2CC2)[C@H](Cc2ccccc2)OC(=O)[C@@H]1Cc1ccccc1
RECORDED METRIC: composite z-score
ENDPOINT VALUE: 0.241
//
COMPOUND: CC(C)Cc1ccc(CN2CC[C@@H](N)C2)cc1
RECORDED METRIC: composite z-score
ENDPOINT VALUE: -0.816
//
COMPOUND: C=CCOC(=O)[C@H]1[C@@H]2C(=O)O[C@@H](c3ccccc3)[C@@H](c3ccccc3)N2[C@@H](c2ccc(OCCOC(=O)[C@@H]3C[C@@H]4C(=O)N5CCC[C@H]5C(=O)N4[C@@H]3c3cccc(OCCO)c3)cc2)[C@]12C(=O)Nc1ccc(I)cc12
RECORDED METRIC: composite z-score
ENDPOINT VALUE: 1.19

Prompt: # composite z-score lookup, item CCCCCCCCCCC(O)C1C=CC2C(=O)NC(=O)C2N1Nc1ccc(Cl)cc1Cl (centres undefined)
Completion: -1.22
